Listing of entries alongside the reported Corrosion Curr. (Icorr).
assay: Electrochemical testing (Tafel Plot), corrosion current, corrosion potential and pH of simulated acid rain saturated with pigment

compound	Corrosion Curr. (Icorr)
O=C([O-])CCCCCCCCCCC(=O)[O-].OCCN(CCO)CCO.[Zn+2] [Compound 10, Zinc Dibasate Triethanolamine]	93 microamps
NCCN.O=C([O-])c1ccccc1C(=O)[O-].[Zn+2] [Compound 17, Zinc Phthalate Ethylenediamine]	83 microamps
NCCN.O=C([O-])CCCCCCCCC(=O)[O-].[Zn+2] [Compound 6, Zinc Sebacate Ethylenediamine]	170 microamps
CCNCC.O=C([O-])CCCCCCCCCCC(=O)[O-].[Zn+2] [Compound 12, Zinc Dodecanedioate Diethylamine]	197 microamps
